Sourced from paper PMC7311426

system: E. coli clinical isolates; experiment: microbe, parasite or virus in culture; settings: Worldwide isolates 2011-2013, E. coli n = 112

- Compound: "CC(C)(O/N=C(\\C(=O)N[C@@H]1C(=O)N2C(C(=O)[O-])=C(C[n+]3ccccc3)CS[C@H]12)c1csc(N)n1)C(=O)O [Ceftazidime, ceftazidime, reference compound]"
  System Under Test: "E. coli clinical isolates"
  MIC50: "0.25 mg/L"
- Compound: "C[C@@H](O)[C@H]1C(=O)N2C(C(=O)O)=C(S[C@@H]3CN[C@H](C(=O)N(C)C)C3)[C@H](C)[C@H]12 [Meropenem, meropenem, reference compound]"
  System Under Test: "E. coli clinical isolates"
  MIC50: "≤ 0.015 mg/L"
- Compound: "C[C@H]1COc2c(N3CCN(C)CC3)c(F)cc3c(=O)c(C(=O)O)cn1c23 [LEV, levofloxacin, reference compound]"
  System Under Test: "E. coli clinical isolates"
  MIC50: "0.06 mg/L"
- Compound: "CNC(C)C1CCC(N)C(OC2C(N)CC(N)C(OC3OCC(C)(O)C(NC)C3O)C2O)O1 (stereo not shown) [Gentamicin, gentamicin, reference compound]"
  System Under Test: "E. coli clinical isolates"
  MIC50: "0.5 mg/L"
